For each of the binders below, state its koff.
Target: T1, StrepII-tagged ROR1-extracellular domain (human) (human, UniProt Q01973 30-406)
T1 construct: extracellular domain; also called ROR1-strep; soluble ROR1-strep
T1 sequence (Q01973 other isoform, or with tags, fused parts or gaps): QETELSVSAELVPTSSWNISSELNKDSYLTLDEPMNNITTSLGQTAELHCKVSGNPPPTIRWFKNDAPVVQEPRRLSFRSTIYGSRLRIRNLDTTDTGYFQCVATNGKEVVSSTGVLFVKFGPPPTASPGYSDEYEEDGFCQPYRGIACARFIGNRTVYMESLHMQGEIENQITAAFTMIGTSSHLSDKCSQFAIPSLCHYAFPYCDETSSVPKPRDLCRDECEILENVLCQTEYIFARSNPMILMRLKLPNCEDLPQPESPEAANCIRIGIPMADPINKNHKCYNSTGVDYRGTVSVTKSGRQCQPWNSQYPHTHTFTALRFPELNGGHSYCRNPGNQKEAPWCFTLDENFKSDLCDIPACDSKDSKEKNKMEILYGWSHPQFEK
Assay: SPR (Biacore T200), purified mAb captured by anti-human Fc, ROR1-strep 2.5-20 nM as analyte, 1:1 model, 25 C
Answers are plain numbers, in s⁻¹.

Please review the entries below; each comes with its answer.
1) chimeric mAb 2A2 (mouse variable regions, human IgG1/kappa constant regions) (antibody, V domains shown, also called chim 2A2; parental mAb 2A2) VH: QVQLQQSGAELVRPGASVTLSCKASGYTFSDYEMHWVIQTPVHGLEWIGAIDPETGGTAYNQKFKGKAILTADKSSSTAYMELRSLTSEDSAVYYCTGYYDYDSFTYWGQGTLVTVSA VL: DIVMTQSQKIMSTTVGDRVSITCKASQNVDAAVAWYQQKPGQSPKLLIYSASNRYTGVPDRFTGSGSGTDFTLTISNMQSEDLADYFCQQYDIYPYTFGGGTKLEIK; 0.00968
2) hu2A2-D23, humanized from 2A2 (antibody, human IgG1, V domains shown, Human IgG1/kappa, expressed in 293T cells and purified; also called msD23-19) VH: QVQLVESGAEVKKPGASVKLSCKASGYTFSDYEMHWVRQAPGQRLEWMGAIDPETGGTAYNQKFKGRVTITVDKSASTAYMELSSLRSEDTAVYYCTGYYDYDSFTYWGPGTTVTVSS VL: DIVMTQSPSTLSASVGDRVTITCKASQNVDAAVAWYQQKPGTAPKLLIYSASNRYTGVPSRFSGSGSGTEFTLTISSLQSEDLADYFCQQYDIYPYTFGQGTKLEIK; 0.0138
3) rbQ12, humanized from R11 (antibody, human IgG1, V domains shown, Human IgG1/kappa, expressed in 293T cells and purified; also called huR11-Q12; rbQ12-40) VH: EVQLVESGGGLVQPGGSLRLSCAASGSDINDYPISWVRQAPGKGLEWVSFINSGGSTWYASWVKGRFTISRDNAKNSLYLQMNSLRADDTATYFCARGYSTYYGDFNIWGQGTMVTVSS VL: EIVMTQSPSSLSASVGDRVTITCQASQSIDSNLAWFQQKPGKAPNLLIYRASNLASGVPSRFSGSGSGTEFTLTISSLQREDAATYYCLGGVGNVSYRTSFGQGTKVEIK; 0.0104
4) rbD4, humanized from R11 (antibody, human IgG1, V domains shown, Human IgG1/kappa, expressed in 293T cells and purified; also called huR11-D4; rbD4-32) VH: EVQLVESGGGLVQPGRSLRLSCTASGSDINDYPISWFRQAPGKGLEWVGFINSGGSTWYASWVKGRFTISRDDSKSIAYLQMNSLKTDDTATYFCARGYSTYYGDFNIWGQGTTVTVSS VL: DVVMTQSPSSLSASVGDRVTITCQASQSIDSNLAWFQQKPGKAPNLLIYRASNLASGVPSRFSGSGSGTEFTLTISSLQREDAATYYCLGGVGNVSYRTSFGQGTKVEIK; 0.0071
5) hu2A2b-Q11, humanized from 2A2 (antibody, human IgG1, V domains shown, also called hu2A2-Q11; msQ11-3) VH: EVQLVQSGAEVKKPGASVKVSCKASGYTFSDYEMHWVRQAPGQGLEWLGAIDPETGGTAYNQKFKGRVTMTGDTSISTAYMELSRLTSDDTAVYYCTGYYDYDSFTYWGQGTLVSVSS VL: DIQMTQSPSSLSTSVGDRVTITCKASQNVDAAVAWYQQKPGKAPKLLIYSASNRYTGVASRFSGSGSGTDFTFTISSLQSEDLADYFCQQYDIYPYTFGQGTKLEIK; 0.0173

For each entry beneath this line, provide reported koff.
1. hu2A2-D16, humanized from 2A2 (antibody, human IgG1, V domains shown, Human IgG1/kappa, expressed in 293T cells and purified; also called msD16-7) VH: EVQLVESGAEVKKPGASVKVSCKASGYTFSDYEMHWVRQAPGQGLEWVGAIDPETGGTAYNQKFKGRVTMTRDTSTSTVYMELSSLRSEDTAVYYCTGYYDYDSFTYWGQGTLVTVSS VL: DIQMTQSPSSLSASVGDRVTITCKASQNVDAAVAWYQQKPGKAPKLLIYSASNRYTGIPTRFSGSGSGTDFTLTISSLQSEDLADYFCQQYDIYPYTFGQGTKVEIK
2. rbQ11, humanized from R11 (antibody, human IgG1, V domains shown, Human IgG1/kappa, expressed in 293T cells and purified; also called huR11-Q11; rbQ11-32) VH: EVQLVQSGGGLVQPGGSLRLSCAASGSDINDYPISWVRQAPGKGLEWVSFINSGGSTWYASWVKGRFTISRDNAKNSLYLQMNSLRDDDTATYFCARGYSTYYGDFNIWGQGTLVTVSS VL: DIVMTQSPSSLSASVGDRVTITCQASQSIDSNLAWFQQKPGKAPKSLIYRASNLASGVPSKFSGSGSGTDFTLTISSLQREDAATYYCLGGVGNVSYRTSFGGGTKVEIK

stdout:
[0.0189, 0.00498]
